Tested on: crabgrass
experimental.protocol: Test B pre/postemergence crabgrass
Format: in vivo, Digitaria sanguinalis
experimental.parameters: Postemergence, Rate 1000 g/ha; scale 0 to 10 (0 no effect, 10 complete control)
property.name: Crabgrass plant response rating

Known Crabgrass plant response rating results, listed for orientation:
molecule	Crabgrass plant response rating
CCOP(=O)(Cn1c(=O)on(C(=O)N(c2ccccc2)C(C)C)c1=O)OCC [Compound 447]	0
C=CCn1c(=O)on(C(=O)N(c2ccc(F)cc2F)C2CC2)c1=O [Compound 127]	0
COP(=O)(CCn1c(=O)on(C(=O)N(c2ccc(F)cc2)C(C)C)c1=O)OC [Compound 662]	8

Read the next record carefully.
Reported Crabgrass plant response rating for COc1ccc(-n2c(=O)on(C(=O)N(c3ccc(F)cc3)C(C)C)c2=O)cc1 [Compound 5] : what is it?
6

---

Tested on: giant foxtail
experimental.protocol: Test B pre/postemergence giant foxtail
Assay type: in vivo, Setaria faberii
experimental.parameters: Preemergence, Rate 125 g/ha; scale 0 to 10 (0 no effect, 10 complete control)
As shown below, each of these molecules has a reported Plant response rating, Giant foxtail value.
Format: numeric value only, no unit, no commentary.

Known Plant response rating, Giant foxtail results, listed for orientation:
query.smiles	subject.of.test	Plant response rating, Giant foxtail
COc1cccc(C)c1-n1c(=O)on(C(=O)N(c2ccccc2)C(C)C)c1=O	giant foxtail	7
CC(C)N(C(=O)n1oc(=O)n(-c2ccc(F)cc2F)c1=O)c1ccc(F)cc1F	giant foxtail	4

Reported Plant response rating, Giant foxtail for Cc1nn(C)c(C)c1-n1c(=O)on(C(=O)N(c2ccc(F)cc2F)C(C)C)c1=O : what is it?
9

Reported Plant response rating, Giant foxtail for CC(C)N(C(=O)n1oc(=O)n(C(C)C)c1=O)c1ccccc1 : what is it?
10

Reported Plant response rating, Giant foxtail for CCN(C(=O)n1oc(=O)n(-c2ccc(F)cc2F)c1=O)C1CCCCC1 : what is it?
2

---

Test system: sugar beet
experimental.protocol: Test B pre/postemergence sugar beet
Format: in vivo, Beta vulgaris
experimental.parameters: Preemergence, Rate 250 g/ha; scale 0 (no effect) to 10 (complete control)
property.name: Sugarbeets plant response rating

compound	Sugarbeets plant response rating
CC(C)N(C(=O)n1oc(=O)n(C(CF)CCl)c1=O)c1ccc(F)cc1 (racemic)	8
CC(C)N(C(=O)n1oc(=O)n(CC2=NOCC2)c1=O)c1ccccc1	4
CC(C)N(C(=O)n1oc(=O)n(C(C)C(=S)N(C)C)c1=O)c1ccc(F)cc1F (centres unmarked)	2
CC(C)N(C(=O)n1oc(=O)n(C[C@H](C)Cl)c1=O)c1ccc(F)cc1F	4

Reported Sugarbeets plant response rating for CC(C)N(C(=O)n1oc(=O)n(C(C)C2=NOCC2)c1=O)c1ccccc1 (racemic) : what is it?
0

---

System: soybean
experimental.protocol: Test B pre/postemergence soybean
Assay type: in vivo, Glycine max
experimental.parameters: Postemergence, Rate 62 g/ha; scale of 0 to 10, 0 is no effect, 10 is complete control
Procedure: […] At the same time, these crop and weed species were also treated with postemergence applications of test chemicals formulated in the same manner. […] Treated plants and controls were maintained in a greenhouse for twelve to sixteen days, after which all species were compared to controls and visually evaluated. […]
property.name: Soybean plant response rating
Format: numeric value only, no unit, no commentary.

Known Soybean plant response rating results, listed for orientation:
query.smiles	subject.of.test	property.name	recorded.result
COCCOCn1c(=O)on(C(=O)N(c2ccc(Cl)cc2)C(C)C)c1=O	soybean	Soybean plant response rating	3
CC(C)N(C(=O)n1oc(=O)n(C[Si](C)(C)C)c1=O)c1ccc(Cl)cc1	soybean	Soybean plant response rating	2
CCC(=O)Cn1c(=O)on(C(=O)N(c2ccc(F)cc2F)C(C)C)c1=O	soybean	Soybean plant response rating	3

Read the next record carefully.
Record CCC=CCn1c(=O)on(C(=O)N(c2ccc(F)cc2F)C(C)C)c1=O : what is its Soybean plant response rating with soybean?
4

---

As shown below, each of these compounds has a reported Giant foxtail plant response rating value.
Test system: giant foxtail
experimental.protocol: Test B pre/postemergence giant foxtail
Format: in vivo, Setaria faberii
experimental.parameters: Rate 125 g/ha, Postemergence; scale of 0 to 10 where 0 is no effect and 10 is complete control
Description: […] At the same time, these crop and weed species were also treated with postemergence applications of test chemicals formulated in the same manner. […] Treated plants and controls were maintained in a greenhouse for twelve to sixteen days, after which all species were compared to controls and visually evaluated. […]
Format: numeric value only, no unit, no commentary.

Known Giant foxtail plant response rating results, listed for orientation:
query.smiles	subject.of.test	Giant foxtail plant response rating
CC(C)N(C(=O)n1oc(=O)n(Cc2ccccc2-c2ccccc2)c1=O)c1ccc(F)cc1	giant foxtail	0
CC(C)N(C(=O)n1oc(=O)n(CCCCF)c1=O)c1ccc(F)cc1	giant foxtail	5

Reported Giant foxtail plant response rating for Cc1ccccc1-n1c(=O)on(C(=O)N(c2ccc(Oc3ccccc3)cc2)C(C)C)c1=O : what is it?
0

Reported Giant foxtail plant response rating for CC(C)N(C(=O)n1oc(=O)n(Cc2nnsc2Cl)c1=O)c1ccc(F)cc1F : what is it?
0

---

Test system: rape
experimental.protocol: Test B pre/postemergence rape
Assay type: in vivo, Brassica napus
experimental.parameters: Postemergence, Rate 125 g/ha; scale of 0 to 10 where 0 is no effect and 10 is complete control
property.name: Rape plant response rating
Format: numeric value only, no unit, no commentary.

molecule	subject.of.test	property.name	recorded.result
CC(C)N(C(=O)n1oc(=O)n(C(C)C)c1=O)c1ccccc1 [Compound 113]	rape	Rape plant response rating	3
CC(CBr)Cn1c(=O)on(C(=O)N(c2ccc(F)cc2)C(C)C)c1=O (stereo not drawn) [Compound 752]	rape	Rape plant response rating	2
CC(C)N(C(=O)n1oc(=O)n(C[C@H](C)Cl)c1=O)c1ccc(F)cc1F [Compound 714]	rape	Rape plant response rating	5
CCN(Cc1ccccc1)C(=O)n1oc(=O)n(C(C)C)c1=O [Compound 166]	rape	Rape plant response rating	0
CC(C)N(C(=O)n1oc(=O)n(Cc2ccccc2)c1=O)c1ccc(Cl)cc1 [Compound 106]	rape	Rape plant response rating	0

Reported Rape plant response rating for CC(C)N(C(=O)n1oc(=O)n(CCCCl)c1=O)c1ccc(F)cc1 [Compound 713] : what is it?
0

---

System: morningglory
experimental.protocol: Test B pre/postemergence morningglory
Format: in vivo, Ipomoea hederacea
experimental.parameters: Rate 500 g/ha, Postemergence; scale 0 to 10, 0 no effect, 10 complete control
As shown below, each of these compounds has a reported Plant response rating, Morningglory value.

Known Plant response rating, Morningglory results, listed for orientation:
compound	recorded.result
CC1CC1n1c(=O)on(C(=O)N(c2ccccc2)C(C)C)c1=O (stereo not shown) [Compound 370]	10
CC(C)N(C(=O)n1oc(=O)n(CC2CCOC2)c1=O)c1ccc(F)cc1 (stereo not shown) [Compound 375]	6
CC(C)N(C(=O)n1oc(=O)n(N2C(C)CCCC2C)c1=O)c1ccc(F)cc1F (stereo not shown) [Compound 383]	0

Read the next record carefully.
Record CC1CC1n1c(=O)on(C(=O)N(c2ccc(F)cc2)C(C)C)c1=O (stereo not shown) [Compound 371] : what is its Plant response rating, Morningglory with morningglory?
10

---

As shown below, each of these molecules has a reported Wheat plant response rating value.
System: wheat
experimental.protocol: Test B pre/postemergence wheat
Assay type: in vivo, Triticum aestivum
experimental.parameters: Rate 500 g/ha, Postemergence; scale 0 to 10, 0 no effect, 10 complete control
Format: numeric value only, no unit, no commentary.

Known Wheat plant response rating results, listed for orientation:
molecule	subject.of.test	recorded.result
CC(C)N(C(=O)n1oc(=O)n(Cc2ccccn2)c1=O)c1ccc(F)cc1 [Compound 267]	wheat	4
CCN(Cc1ccccc1)C(=O)n1oc(=O)n(-c2ccccc2C)c1=O [Compound 71]	wheat	0
[2H]C([2H])([2H])n1c(=O)on(C(=O)N(c2ccc(F)cc2)C(C)C)c1=O [Compound 245]	wheat	8

Reported Wheat plant response rating for COc1cccc(C)c1-n1c(=O)on(C(=O)N(c2ccc(F)cc2)C(C)C)c1=O [Compound 62] : what is it?
0

Reported Wheat plant response rating for CCOC(=O)C(C)N(C(=O)n1oc(=O)n(-c2ccccc2C)c1=O)c1ccc(F)cc1 (stereo not drawn) [Compound 247] : what is it?
0

Reported Wheat plant response rating for Cc1nn(C)c(C)c1-n1c(=O)on(C(=O)N(c2ccc(F)cc2F)C(C)C)c1=O [Compound 76] : what is it?
3

Reported Wheat plant response rating for CC(C)N(C(=O)n1oc(=O)n(Cc2ccccc2)c1=O)c1ccc(Cl)cc1 [Compound 106] : what is it?
0

Reported Wheat plant response rating for COC(=O)C=CCn1c(=O)on(C(=O)N(c2ccc(F)cc2)C(C)C)c1=O [Compound 263] : what is it?
2

---

System: wild oat
experimental.protocol: Test B pre/postemergence wild oat
Format: in vivo, Avena fatua
experimental.parameters: Preemergence, Rate 500 g/ha; scale of 0 to 10 where 0 is no effect and 10 is complete control
property.name: Wild oats plant response rating
Format: numeric value only, no unit, no commentary.

compound	subject.of.test	recorded.result
CC(C)N(C(=O)n1oc(=O)n(N2C(C)CCCC2C)c1=O)c1ccc(F)cc1F (centres unmarked)	wild oat	0

Reported Wild oats plant response rating for CC(C)N(C(=O)n1oc(=O)n(Cc2ccccc2-c2ccccc2)c1=O)c1ccc(F)cc1 : what is it?
0

Reported Wild oats plant response rating for CC1CC1n1c(=O)on(C(=O)N(c2ccccc2)C(C)C)c1=O (centres unmarked) : what is it?
10

Reported Wild oats plant response rating for CC(C)N(C(=O)n1oc(=O)n(CCCNC(=O)CCl)c1=O)c1ccccc1 : what is it?
0

Reported Wild oats plant response rating for CCN(CC)C(=O)Cn1c(=O)on(C(=O)N(c2ccc(F)cc2F)C(C)C)c1=O : what is it?
10

Taken from patent US6737383B1.
